Biological target: Neu5Ac(a2-3)Gal(b1-4)GlcNAc(b1-3)Gal(b1-4)GlcNAc(b1-6)[Gal(b1-3)]GalNAc
Assay: glycan array binding signal (z-score within array); higher = stronger binding
Conditions: glycan notation: IUPAC condensed, linker removed
This excerpt belongs to a sample that is enriched for the strongest signals.
Measurement label: glycan array binding signal (z-score)
Numbers only.

{"Binder": "EUL D1A first (Oryza sativa) (protein) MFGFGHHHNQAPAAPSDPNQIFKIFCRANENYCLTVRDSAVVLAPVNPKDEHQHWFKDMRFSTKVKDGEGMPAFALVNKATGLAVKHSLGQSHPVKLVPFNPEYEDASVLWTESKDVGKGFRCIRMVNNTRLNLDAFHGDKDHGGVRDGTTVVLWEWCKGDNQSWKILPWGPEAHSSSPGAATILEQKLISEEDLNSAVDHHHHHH", "glycan array binding signal (z-score)": 0.24}

// switching to the query binder
Entry LysMD3 (Homo sapiens), Q7Z3D4 (protein) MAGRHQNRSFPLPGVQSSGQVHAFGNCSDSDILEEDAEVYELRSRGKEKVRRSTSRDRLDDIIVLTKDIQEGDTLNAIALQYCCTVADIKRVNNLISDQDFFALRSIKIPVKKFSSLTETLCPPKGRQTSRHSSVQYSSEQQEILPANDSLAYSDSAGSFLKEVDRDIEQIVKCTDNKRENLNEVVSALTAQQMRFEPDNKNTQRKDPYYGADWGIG has what glycan array binding signal (z-score)?
-0.924
